# target.or.system: hGABAA α1β3γ2 (Homo sapiens, UniProt P14867+P18507+P28472)
# Sequence (P14867 28-456): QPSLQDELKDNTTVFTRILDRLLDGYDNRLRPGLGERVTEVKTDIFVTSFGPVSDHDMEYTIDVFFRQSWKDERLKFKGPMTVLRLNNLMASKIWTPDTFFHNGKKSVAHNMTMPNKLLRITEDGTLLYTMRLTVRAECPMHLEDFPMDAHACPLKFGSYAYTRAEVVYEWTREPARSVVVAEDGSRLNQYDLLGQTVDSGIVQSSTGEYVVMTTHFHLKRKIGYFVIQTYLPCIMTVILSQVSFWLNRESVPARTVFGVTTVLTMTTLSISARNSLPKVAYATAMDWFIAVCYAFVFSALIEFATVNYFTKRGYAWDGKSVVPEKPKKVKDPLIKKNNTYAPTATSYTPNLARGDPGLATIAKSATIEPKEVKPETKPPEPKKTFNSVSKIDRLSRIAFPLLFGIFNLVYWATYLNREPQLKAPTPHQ
# Sequence (P28472 26-473): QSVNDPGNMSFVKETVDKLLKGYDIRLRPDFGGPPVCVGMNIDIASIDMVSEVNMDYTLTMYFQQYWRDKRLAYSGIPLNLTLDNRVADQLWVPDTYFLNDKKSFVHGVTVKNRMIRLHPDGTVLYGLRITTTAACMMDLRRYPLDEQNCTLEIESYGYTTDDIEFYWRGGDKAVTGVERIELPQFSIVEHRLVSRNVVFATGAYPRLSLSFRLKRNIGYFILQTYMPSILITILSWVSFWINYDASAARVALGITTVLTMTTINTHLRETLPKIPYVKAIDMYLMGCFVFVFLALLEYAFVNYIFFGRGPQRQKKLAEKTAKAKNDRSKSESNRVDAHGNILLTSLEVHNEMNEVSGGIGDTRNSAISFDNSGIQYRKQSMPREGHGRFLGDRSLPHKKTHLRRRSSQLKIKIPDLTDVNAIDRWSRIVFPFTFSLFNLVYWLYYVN
# Sequence (P18507 40-475): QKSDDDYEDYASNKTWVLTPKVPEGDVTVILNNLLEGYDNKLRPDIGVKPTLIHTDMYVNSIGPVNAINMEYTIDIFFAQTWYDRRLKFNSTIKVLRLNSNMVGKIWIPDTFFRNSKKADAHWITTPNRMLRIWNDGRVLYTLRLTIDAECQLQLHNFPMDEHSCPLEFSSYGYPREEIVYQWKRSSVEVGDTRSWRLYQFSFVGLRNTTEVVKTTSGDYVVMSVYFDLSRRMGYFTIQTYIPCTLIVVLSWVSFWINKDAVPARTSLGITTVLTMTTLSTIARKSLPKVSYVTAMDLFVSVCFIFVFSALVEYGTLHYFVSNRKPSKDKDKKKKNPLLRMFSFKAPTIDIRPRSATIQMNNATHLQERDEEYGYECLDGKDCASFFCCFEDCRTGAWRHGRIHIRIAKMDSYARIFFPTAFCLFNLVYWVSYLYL
# test.details: hGABAA IonFlux HT PAM Assay, α1β3γ2
# Type: cell-based
# study.conditions: read-out: Estimated EC50
readout: pEC50
Would you please state pEC50, meaning minus log10 of the concentration in mol/L, as a bare number?

Example entries and their recorded answers appear below.
compound	measured.result
CNCCN(C)C(=O)Cc1c(-c2ccc(C)cc2)nc2ccc(C)cn12	6.18
CCCN(CCNC)C(=O)Cc1c(-c2ccc(C)cc2)nc2ccc(C)cn12	6.35

Next compound, please.
Task: Would you kindly share the measured pEC50 for CCN(CCNC)C(=O)CC1c2nccnc2C(=O)N1c1ccc(Cl)cn1 (stereo not drawn) ?
Result: 5.50
